src = ChEMBL document CHEMBL1150262

study target: Somatostatin receptor type 2 (Homo sapiens, UniProt P30874)
Sequence (P30874 whole entry): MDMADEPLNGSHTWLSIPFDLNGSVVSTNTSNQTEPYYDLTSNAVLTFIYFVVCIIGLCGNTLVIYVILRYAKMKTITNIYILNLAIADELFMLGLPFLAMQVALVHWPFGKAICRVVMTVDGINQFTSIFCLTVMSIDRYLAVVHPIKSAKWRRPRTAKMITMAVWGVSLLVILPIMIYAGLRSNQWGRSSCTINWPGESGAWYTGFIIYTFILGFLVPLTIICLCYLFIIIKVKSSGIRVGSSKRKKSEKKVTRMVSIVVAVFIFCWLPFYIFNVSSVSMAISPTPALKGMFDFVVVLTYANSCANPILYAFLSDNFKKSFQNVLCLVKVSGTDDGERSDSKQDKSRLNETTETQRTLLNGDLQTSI
experiment description: Displacement of [125I]-[Leu8, DTrp22, Tyr25]SRIF-28 from human cloned sst2 receptor expressed in CCL39 cells
Assay type: cell-based
quantity: pIC50
# pIC50: negative log10 of molar concentration; output just the value

Consider the worked cases shown below.
compound=CC(=O)N[C@H]1SSC[C@@H](C(=O)O)NC(=O)[C@H](Cc2ccccc2)NC(=O)[C@H]([C@@H](C)O)NC(=O)[C@H](CCCCN)NC(=O)[C@@H](Cc2c[nH]c3ccccc23)NC(=O)[C@H](Cc2ccccc2)NC(=O)[C@H](Cc2ccccc2)NC1=O recorded_measurement=7.38
compound=CC(=O)N[C@@H]1CCSSC[C@@H](C(=O)O)NC(=O)[C@H](Cc2ccccc2)NC(=O)[C@H]([C@@H](C)O)NC(=O)[C@H](CCCCN)NC(=O)[C@@H](Cc2c[nH]c3ccccc23)NC(=O)[C@H](Cc2ccccc2)NC(=O)[C@H](Cc2ccccc2)NC1=O recorded_measurement=7.40
compound=CC(=O)N[C@@H]1SS[C@@H](C(=O)O)NC(=O)[C@H](Cc2ccccc2)NC(=O)[C@H]([C@@H](C)O)NC(=O)[C@H](CCCCN)NC(=O)[C@@H](Cc2c[nH]c3ccccc23)NC(=O)[C@H](Cc2ccccc2)NC(=O)[C@H](Cc2ccccc2)NC1=O recorded_measurement=8.41

(Q) Given `CC(=O)N[C@@H]1CSS[C@@H](C(=O)O)NC(=O)[C@H](Cc2ccccc2)NC(=O)[C@H]([C@@H](C)O)NC(=O)[C@H](CCCCN)NC(=O)[C@@H](Cc2c[nH]c3ccccc23)NC(=O)[C@H](Cc2ccccc2)NC(=O)[C@H](Cc2ccccc2)NC1=O` , state its recorded pIC50.
(A) 8.32

(Q) Given `C[C@@H](O)[C@@H]1NC(=O)[C@H](CCCCN)NC(=O)[C@@H](Cc2c[nH]c3ccccc23)NC(=O)[C@H](Cc2ccccc2)NC(=O)[C@H](Cc2ccccc2)NC(=O)[C@@H](N)CSSC[C@H](C(=O)O)NC(=O)[C@H](Cc2ccccc2)NC1=O` , state its recorded pIC50.
(A) 7.74

* * *

# key: entry, value: pIC50
study target: Somatostatin receptor type 4 (Homo sapiens, UniProt P31391)
Sequence (P31391 whole entry): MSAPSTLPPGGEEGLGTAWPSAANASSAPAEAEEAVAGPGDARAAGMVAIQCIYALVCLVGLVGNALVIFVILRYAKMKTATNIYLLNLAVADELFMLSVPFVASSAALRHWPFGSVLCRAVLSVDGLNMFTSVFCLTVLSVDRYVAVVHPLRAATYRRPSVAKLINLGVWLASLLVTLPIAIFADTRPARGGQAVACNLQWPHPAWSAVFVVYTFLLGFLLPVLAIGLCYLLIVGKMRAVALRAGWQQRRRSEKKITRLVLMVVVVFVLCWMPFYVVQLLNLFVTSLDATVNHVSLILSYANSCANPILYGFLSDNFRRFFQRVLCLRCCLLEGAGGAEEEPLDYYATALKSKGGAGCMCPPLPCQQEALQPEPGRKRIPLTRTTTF
experiment description: Displacement of [125I]-[Leu8, DTrp22, Tyr25]SRIF-28 from human cloned sst4 receptor expressed in CCL39 cells
# pIC50: negative log10 of molar concentration; output just the value

query_smiles=CC(=O)N[C@@H]1SS[C@@H](C(=O)O)NC(=O)[C@H](Cc2ccccc2)NC(=O)[C@H]([C@@H](C)O)NC(=O)[C@H](CCCCN)NC(=O)[C@@H](Cc2c[nH]c3ccccc23)NC(=O)[C@H](Cc2ccccc2)NC(=O)[C@H](Cc2ccccc2)NC1=O quantity=pIC50 recorded_measurement=8.59
query_smiles=CC(=O)N[C@H]1CSS[C@H](C(=O)O)NC(=O)[C@H](Cc2ccccc2)NC(=O)[C@H]([C@@H](C)O)NC(=O)[C@H](CCCCN)NC(=O)[C@@H](Cc2c[nH]c3ccccc23)NC(=O)[C@H](Cc2ccccc2)NC(=O)[C@H](Cc2ccccc2)NC1=O quantity=pIC50 recorded_measurement=8.70
query_smiles=CC(=O)N[C@H]1CSSC[C@H](C(=O)O)NC(=O)[C@H](Cc2ccccc2)NC(=O)[C@H]([C@@H](C)O)NC(=O)[C@H](CCCCN)NC(=O)[C@@H](Cc2c[nH]c3ccccc23)NC(=O)[C@H](Cc2ccccc2)NC(=O)[C@H](Cc2ccccc2)NC1=O quantity=pIC50 recorded_measurement=8.35
query_smiles=C[C@@H](O)[C@@H]1NC(=O)[C@H](CCCCN)NC(=O)[C@@H](Cc2c[nH]c3ccccc23)NC(=O)[C@H](Cc2ccccc2)NC(=O)[C@H](Cc2ccccc2)NC(=O)[C@@H](N)CSSC[C@H](C(=O)O)NC(=O)[C@H](Cc2ccccc2)NC1=O quantity=pIC50 recorded_measurement=8.09
query_smiles=CC(=O)N[C@@H]1CSSC[C@H](C(=O)O)NC(=O)[C@H](Cc2ccccc2)NC(=O)[C@H]([C@@H](C)O)NC(=O)[C@H](CCCCN)NC(=O)[C@@H](Cc2c[nH]c3ccccc23)NC(=O)[C@H](Cc2ccccc2)NC(=O)[C@H](Cc2ccccc2)NC1=O quantity=pIC50 recorded_measurement=8.49

(Q) Given `CC(=O)N[C@@H]1CCSSC[C@@H](C(=O)O)NC(=O)[C@H](Cc2ccccc2)NC(=O)[C@H]([C@@H](C)O)NC(=O)[C@H](CCCCN)NC(=O)[C@@H](Cc2c[nH]c3ccccc23)NC(=O)[C@H](Cc2ccccc2)NC(=O)[C@H](Cc2ccccc2)NC1=O` , state its recorded pIC50.
(A) 8.85

(Q) Given `CC(=O)N[C@H]1CCSSC[C@@H](C(=O)O)NC(=O)[C@H](Cc2ccccc2)NC(=O)[C@H]([C@@H](C)O)NC(=O)[C@H](CCCCN)NC(=O)[C@@H](Cc2c[nH]c3ccccc23)NC(=O)[C@H](Cc2ccccc2)NC(=O)[C@H](Cc2ccccc2)NC1=O` , state its recorded pIC50.
(A) 9.05

(Q) Given `CC(=O)N[C@@H]1SSC[C@@H](C(=O)O)NC(=O)[C@H](Cc2ccccc2)NC(=O)[C@H]([C@@H](C)O)NC(=O)[C@H](CCCCN)NC(=O)[C@@H](Cc2c[nH]c3ccccc23)NC(=O)[C@H](Cc2ccccc2)NC(=O)[C@H](Cc2ccccc2)NC1=O` , state its recorded pIC50.
(A) 8.72
